Measurement name: melting point

For record `O/N=C/c1c(Cl)cc(-c2ccc(O)c(F)c2)cc1Cl` the listed melting point is 185 to 190 °C

Reported melting point ( `O/N=C/c1ccc(-c2ccc(O)cc2)cc1` ) = 207 to 210 °C

Entry `O/N=C/c1ccc(-c2ccc(O)cc2)cc1Cl` — recorded melting point = 187 to 189 °C

Reported melting point ( `O/N=C/c1ccc(-c2ccc(O)cc2)c(Cl)c1` ) = 178 to 179 °C

melting point in this record for `O/N=C/c1c(Cl)cc(-c2ccc(O)cc2)cc1Cl` : 183 to 186 °C

melting point reported for this compound `Cc1cc(/C=N/O)ccc1-c1ccc(O)cc1` : 169 to 171 °C

Entry under test: `COc1cc(-c2ccc(O)cc2)ccc1/C=N/O` . Its melting point was 228 to 230 °C

Looking up `O/N=C/c1ccc(-c2ccc(O)cc2)c(F)c1` , I found its melting point recorded as 178 to 180 °C

melting point in this record for `Cc1cc(O)ccc1-c1ccc(/C=N/O)c(Cl)c1` : 169 to 171 °C

melting point measured on `Cc1cc(-c2ccc(O)cc2)ccc1/C=N/O` = 195 to 197 °C

* * *

This document collects IC50 values reported for ERβ (Homo sapiens).
Express your answer in nM, writing the number without its unit.

ERβ (Homo sapiens) assay, compound `O/N=C/c1ccc(-c2ccc(O)cc2)c(F)c1` , recorded IC50 = 421

Tested system ERβ (Homo sapiens); IC50 recorded for `O/N=C/c1ccc(-c2ccc(O)cc2)cc1Cl` was 85

* * *

Entries with reported IC50 on ERα (Homo sapiens)
Sequence (P03372 whole entry): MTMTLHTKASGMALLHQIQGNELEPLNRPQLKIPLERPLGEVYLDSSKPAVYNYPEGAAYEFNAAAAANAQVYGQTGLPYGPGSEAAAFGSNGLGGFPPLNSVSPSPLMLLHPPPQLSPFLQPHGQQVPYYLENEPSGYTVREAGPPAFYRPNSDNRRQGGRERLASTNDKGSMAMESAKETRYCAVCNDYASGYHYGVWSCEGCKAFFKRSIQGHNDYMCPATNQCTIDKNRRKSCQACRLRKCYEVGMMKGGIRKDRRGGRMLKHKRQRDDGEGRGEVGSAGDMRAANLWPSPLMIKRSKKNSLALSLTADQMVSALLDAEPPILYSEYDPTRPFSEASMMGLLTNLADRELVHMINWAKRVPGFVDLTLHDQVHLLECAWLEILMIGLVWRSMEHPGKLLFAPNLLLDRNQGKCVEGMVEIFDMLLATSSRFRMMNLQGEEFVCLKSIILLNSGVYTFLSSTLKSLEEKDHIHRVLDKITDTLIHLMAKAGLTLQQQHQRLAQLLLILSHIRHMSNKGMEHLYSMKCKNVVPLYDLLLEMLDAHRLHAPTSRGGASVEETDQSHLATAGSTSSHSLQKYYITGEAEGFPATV
The figure you give is taken to be in nM; do not add the unit.

O/N=C/c1c(Cl)cc(-c2ccc(O)cc2)cc1Cl
64

For `O/N=C/c1ccc(-c2ccc(O)c(F)c2)c(Cl)c1Cl` on ERα (Homo sapiens), measured IC50 was 1960

Reported IC50 (ERα (Homo sapiens)) for entry `Cc1cc(/C=N/O)ccc1-c1ccc(O)cc1` is 2820

ERα (Homo sapiens) data for `O/N=C/c1ccc(-c2ccc(O)cc2)c(F)c1` ; its IC50: 3450

Item `O/N=C/c1ccc(-c2ccc(O)cc2)cc1Cl` ; assay system ERα (Homo sapiens); IC50 reported as 1540

# IC50 measured on ERα (Homo sapiens) for item `O/N=C/c1ccc(-c2ccc(O)cc2)cc1F` = 1720

* * *

Quick reference: melting point of the listed items.
Counter-ions that a name gives are not always drawn.

Study these solved cases before continuing.
O/N=C/c1ccc(-c2ccc(O)c(F)c2)c(Cl)c1Cl (as salt: salt)
225 to 227 °C
O/N=C/c1ccc(-c2ccc(O)cc2)c(Cl)c1Cl
208 to 210 °C
O/N=C/c1ccc(-c2cc(F)c(O)c(F)c2)cc1Cl
216 to 219 °C

Lab note: next compound to report on.
Field melting point (entry `O/N=C/c1ccc(-c2ccc(O)c(F)c2)cc1Cl` ) reads 198 to 200 °C

* * *

# Assayed system: ERβ (Homo sapiens)
# Sequence (Q92731 whole entry, species assumed): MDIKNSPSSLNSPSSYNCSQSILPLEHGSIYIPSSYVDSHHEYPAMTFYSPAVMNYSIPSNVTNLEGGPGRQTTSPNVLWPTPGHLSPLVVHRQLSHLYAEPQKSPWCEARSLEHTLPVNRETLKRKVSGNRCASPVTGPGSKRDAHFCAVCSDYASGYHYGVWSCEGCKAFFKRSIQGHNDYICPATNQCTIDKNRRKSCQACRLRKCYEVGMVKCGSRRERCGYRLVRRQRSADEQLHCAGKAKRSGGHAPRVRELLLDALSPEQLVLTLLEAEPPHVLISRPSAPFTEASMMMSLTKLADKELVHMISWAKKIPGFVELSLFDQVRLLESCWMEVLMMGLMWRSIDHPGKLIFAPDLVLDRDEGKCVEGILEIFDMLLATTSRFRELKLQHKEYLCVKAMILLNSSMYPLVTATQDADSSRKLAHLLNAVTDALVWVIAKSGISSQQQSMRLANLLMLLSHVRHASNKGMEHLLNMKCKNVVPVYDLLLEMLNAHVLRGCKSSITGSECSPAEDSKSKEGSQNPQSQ
Friendly reminder: IC50 below 200 nM is Met, at or above is Not met.

O/N=C/c1ccc(-c2ccc(O)c(F)c2)c(Cl)c1Cl
Met

Dear colleague, could you confirm whether IC50 of `O/N=C/c1ccc(-c2ccc(O)cc2)cc1F` falls below 200 nM? Thanks.
Met

Is the reported IC50 for `O/N=C/c1ccc(-c2ccc(O)cc2)cc1` strictly below 200 nM?
Not met

Criterion: IC50 strictly below 200 nM. Is it met by `Cc1cc(-c2ccc(O)cc2)ccc1/C=N/O` ?
Met

Is IC50 of `Cc1cc(O)ccc1-c1ccc(/C=N/O)c(Cl)c1` strictly below 200 nM?
Met
